The measured values listed here are drawn from patent US6706663B2.

# Test system: SAGPY (Sagittaria pygmaea)
# test: Flooded paddy, preemergence weed control
# Type: in vivo, L.
# cond: rate 0.0320 kg/ha, rated 3-4 weeks after treatment, 0-9 rating scale
Would you kindly list herbicidal rating, SAGPY for each of these compounds?
Field format: numeric only.

Checklist item: herbicidal rating, SAGPY tested on SAGPY (Sagittaria pygmaea), entry CC1=CC(C)(C)OC(c2nsc3ccc(-n4c(=O)cc(C(F)(F)F)n(C)c4=O)cc23)C1 (stereo not shown) , value?
0.0

Write down the reported herbicidal rating, SAGPY of `CCc1cc(-c2nsc3ccc(-n4c(=O)cc(C(F)(F)F)n(C)c4=O)cc23)c(CC)s1` , test system: SAGPY (Sagittaria pygmaea).
0.0

# value lookup — system SAGPY (Sagittaria pygmaea), readout herbicidal rating, SAGPY, item CSCC1COC(c2nsc3ccc(-n4c(=O)cc(C(F)(F)F)n(C)c4=O)cc23)O1 (stereo not shown)
0.0

What herbicidal rating, SAGPY appears in the records for this compound with SAGPY (Sagittaria pygmaea)? `Cn1c(C(F)(F)F)cc(=O)n(-c2ccc3snc(C4OCCCO4)c3c2)c1=O`
8.0
